Each entry below carries its reported viability.
experimental protocol: drug combination growth inhibition, ovarian cancer – cell-based, oncology-focused library, rucaparib conditional, profiling panel (AID 1508598)
conditions used: patient-derived ovarian cancer cells, CellTiter-Glo viability, 144 h; at 0.00122 µM; OCI-P5x cells; without rucaparib; hits give low values
Output spec: scalar in %, unitless text.

Past entries and their recorded results:
                         compound_structure  readout_label  unit_symbol  measured_result
0  O=C(Nc1ccc(OC(F)(F)F)cc1)c1sccc1NCc1ccnc2ccccc12      viability            %             81.1
1  CC(C)CC(=O)Nc1n[nH]c2c1CN(C(=O)C1CCN(C)CC1)C2(C)C      viability            %              118
2  CCN(CCO)CCCOc1ccc2c(Nc3cc(CC(=O)Nc4cccc(F)c4)[nH]n3)ncnc2c1      viability            %              108
3  CNC(=O)c1cc(Oc2ccc(NC(=O)Nc3ccc(Cl)c(C(F)(F)F)c3)c(F)c2)ccn1      viability            %              106
4  Nc1nccc(Oc2ccc(NC(=O)c3c[nH]cc(-c4ccc(F)cc4)c3=O)cc2F)c1Cl      viability            %              114

Could you now look at the following compound, please?
Record request: viability value, item C[C@H](NC(=O)Cc1cc(F)cc(F)c1)C(=O)N[C@@H]1C(=O)N(C)c2ccccc2-c2ccccc21
102

###

experimental protocol: growth inhibition of DIPG cells – cell-based, MIPE4.0 library, CellTiter-Glo luminescence, qHTS (AID 1347066);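 also: cells exposed to compound for 48 hours before readout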
conditions used: SU-DIPG-VI viability, CellTiter-Glo ATP luminescence
Records with an inconclusive call do not appear. The source made the active and inactive calls. The limit is not given here; nearly all actives have AC50 up to about 30 µM.
Respond using exactly one of the listed classes: active, inactive

The following compounds have reported results that may help.
compound structure	class assignment
C#Cc1cccc(Nc2ncnc3cc(OC)c(OCCCCCCC(=O)NO)cc23)c1	active
Nc1ccn([C@@H]2O[C@H](CO)[C@@H](O)C2(F)F)c(=O)n1	inactive
CCC[C@@H](C=O)NC(=O)[C@H](CC(C)C)NC(=O)[C@H](CC(C)C)NC(=O)OCc1ccccc1	active
C[C@]12CC[C@@H]3c4ccc(O)cc4CC[C@H]3[C@@H]1[C@@H](O)[C@@H](O)[C@@H]2O	inactive
CN[C@@H]1[C@@H](O)[C@@H](O[C@@H]2[C@@H](O)[C@H](O[C@H]3O[C@H](CN)[C@@H](O)[C@H](O)[C@H]3O)[C@@H](N)C[C@H]2NC(=O)[C@@H](O)CN)OC[C@]1(C)O	inactive

Could you kindly confirm the outcome this assay logged for Cc1ccc(C(=O)Nc2ccc(CN3CCN(C)CC3)c(C(F)(F)F)c2)cc1C#Cc1cnc2cccnn12 ?
active

// param item: CCC(=O)NC[C@H](Cc1ccc(OCCc2nc(-c3ccccc3)oc2C)cc1)N/C(C)=C\C(=O)c1ccc(C(F)(F)F)cc1 ; yields the recorded call
inactive

Hello, I am checking results. What call was entered for C=CCNC1=C2C[C@@H](C)C[C@H](OC)[C@H](O)[C@@H](C)/C=C(\C)[C@H](OC(N)=O)[C@@H](OC)/C=C\C=C(/C)C(=O)NC(=CC1=O)C2=O ?
active

Per the assay record, what outcome was assigned to Nc1nc(F)nc2c1ncn2[C@@H]1O[C@H](CO)[C@@H](O)[C@H]1O ?
active

Just curious, what result did Cc1cc(Nc2nc(N[C@@H](C)c3ncc(F)cn3)ncc2Cl)n[nH]1 get here?
active

How did this test come out for OCc1ccc(-c2nn(Cc3ccccc3)c3ccccc23)o1 ?
inactive

Data credit: PubChem BioAssay
